pIC50: −log10 of the molar value.
Hi, quick share: literature pIC50 data for Plasminogen (Homo sapiens), several sources combined.
Quantity Kind: pIC50

Study these solved cases before continuing.
{"columns": ["Compound", "pIC50"],
 "data": [
  ["CCCCNC(=O)CNC(=O)[C@H](CC(C)C)NC(=O)[C@@H](NC(=O)Cc1ccc2ccccc2c1)[C@@H](C)CC", 4.00],
  ["CN(C)c1ccc(C(=O)O)c(Oc2nc(Oc3cccc(-c4cccc(CN)c4)c3)c(F)c(N3CCC(N(C)C)C3)c2F)c1 (stereo not drawn)", 5.72],
  ["Cn1c(CN2C(=O)CN(c3ccc(Oc4ccccc4)cc3)C2=O)cc2cnc(C(=O)N[C@H](C#N)CCCCN)nc21", 4.85],
  ["CN(C)c1ccc(C(=O)O)c(Oc2nc(Oc3cccc(-c4cccc(CN)c4)c3)c(F)cc2F)c1", 5.19],
  ["COc1ccc(N2CC(=O)N(Cc3cc4cnc(C(=O)N[C@H](C#N)CCCCN)nc4n3C)C2=O)cc1", 3.74],
  ["Cc1cc(Oc2nc(O[C@@H](C(=O)O)C(C)(C)C)c(F)cc2F)cc(-c2cccc(CN)c2)c1", 5.72],
  ["Cn1c(CN2C(=O)CN(c3cccc(S(N)(=O)=O)c3)C2=O)cc2cnc(C(=O)N[C@H](C#N)CCCCN)nc21", 3.66],
  ["CC[C@H](C)[C@H](N)C(=O)[C@H](NC(=O)[C@@H](NC(=O)CC[C@H]1CCC[C@@H](NC(=O)[C@@H](NC(=O)[C@@H](NC(=O)OCc2ccccc2)C(=O)[C@@H](N)Cc2c[nH]c3ccccc23)C(=O)[C@@H](N)Cc2c[nH]c3ccccc23)C1=O)C(=O)[C@@H](N)Cc1c[nH]c2ccccc12)C(=O)OC", 4.87],
  ["COc1cc(O)c2c(=O)cc(-c3ccc(O)c(O)c3)oc2c1", 5.64],
  ["Cn1c(CN2C(=O)CN(c3ccc(OCC#N)cc3)C2=O)cc2cnc(C(=O)N[C@H](C#N)CCCCN)nc21", 3.89]
]}

A = Cc1ccc(C(=O)O)c(Oc2nc(Oc3cccc(-c4cccc(CN)c4)c3)c(F)cc2F)c1
B = CC(C)c1cc(-c2ccc3c(c2)[C@H](N)CO3)cc([C@H](O)Cn2ccc3cccc(C(=O)O)c32)c1
C = N=C(N)N1CCC(C[C@@H](NS(=O)(=O)Cc2ccccc2)C(=O)NCC(=O)N[C@H]2CCCN(C(=N)N)C2O)CC1 (stereo partly drawn)
With regard to pIC50, arrange the entries in ascending order, please. Put the labels in the requested order and list them out.
A, B, C

###

Hi, quick share: literature IC50 data for Plasminogen (Homo sapiens, UniProt P00747), several sources combined.

{"columns": ["Compound", "Study System", "IC50"],
 "data": [
  ["C[C@H](c1nc2ccc(C(=O)N[C@H](C#N)CCCCN)cc2n1C)N1C(=O)CN(c2ccc(Oc3ccncc3)cc2)C1=O", "Plasminogen (Homo sapiens, UniProt P00747)", "12 µM"]
]}

The compound `N#C[C@H](CCCCN)NC(=O)c1ccc(OCc2ccncc2)c(NC(=O)CCc2c[nH]c3ccccc23)c1` , when measured on Plasminogen (Homo sapiens, UniProt P00747), yielded IC50 of 370 µM

The compound CC(=O)Nc1c(CCc2ccccc2)ccn(CC(=O)N[C@H]2CCCN(C(=N)N)C2O)c1=O (stereo partly drawn) , when measured on Plasminogen (Homo sapiens, UniProt P00747), yielded IC50 of > 2.5 µM

The compound `C=CCN1C(=O)/C(=C/c2cc3c(cc2[N+](=O)[O-])OCO3)SC1=S` , when measured on Plasminogen (Homo sapiens, UniProt P00747), yielded IC50 of < 1 µM

The compound `CCCc1ccc(-c2ccc(C(=O)NCC(C)C)cc2C(=O)O)c(C(=O)Nc2ccc(C(=N)N)cc2)c1` , when measured on Plasminogen (Homo sapiens, UniProt P00747), yielded IC50 of > 5 µM

The compound `COCCN(C)Cc1ccc(C(=O)Nc2ccc(Cl)cc2C(=O)Nc2ccc(Cl)cn2)cc1` , when measured on Plasminogen (Homo sapiens, UniProt P00747), yielded IC50 of > 11 µM

The compound `Cc1cc(C(=O)Nc2ccc(-c3ccccc3S(N)(=O)=O)cc2)n(-c2cc3ccccc3cc2C(=O)O)n1` , when measured on Plasminogen (Homo sapiens, UniProt P00747), yielded IC50 of > 11 µM

The compound `CCCn1c(=O)oc2cc(N3CC(=O)N(Cc4cc5cnc(C(=O)N[C@H](C#N)CCCCN)nc5n4C)C3=O)ccc21` , when measured on Plasminogen (Homo sapiens, UniProt P00747), yielded IC50 of 160 µM
